Measurement target: Glutamate [NMDA] receptor
Assay protocol: Inhibition of [3H]1 binding to dextromethorpin binding site of guinea pig microsomal pellet P3 N-methyl-D-aspartate glutamate receptor
Set-up: species or system Cavia porcellus
Listed next: entries and their corresponding IC50.

{"Compound": "CNc1ccc2c(c1)C13CCCCC1C(C2)N(C)CC3 (stereo unspecified)", "IC50 / nM": 1300}
{"Compound": "COc1ccc2c(c1)C13CCCCC1C(C2)N(C)CC3 (stereo not drawn) [RACEMETHORPHAN]", "IC50 / nM": 490}
{"Compound": "CN1CCC23CCCCC2C1Cc1ccc(N=C=S)cc13 (stereo unspecified)", "IC50 / nM": 170}
{"Compound": "CN1CCC23CCCCC2C1Cc1ccccc13 (stereo unspecified)", "IC50 / nM": 1000}
{"Compound": "CN(C)c1ccc2c(c1)C13CCCCC1C(C2)N(C)CC3 (stereo unspecified)", "IC50 / nM": 1100}
{"Compound": "CCCCOc1ccc2c(c1)C13CCCCC1C(C2)N(C)CC3 (stereo unspecified)", "IC50 / nM": 100}
